Values compiled from ChEMBL document CHEMBL1158280.

# test.target: Human immunodeficiency virus type 1 reverse transcriptase (Human immunodeficiency virus 1, UniProt Q72547)
# assay.remarks: Inhibition of DNA dependent DNA polymerase activity of HIV1 recombinant reverse transcriptase p66/p51
What IC50 was measured for each of the following?
A complete answer gives the number and then names the unit.

What does the data say about its IC50? Entry: Cc1cn([C@H]2C[C@H](N=[N+]=[N-])[C@@H](CO[P@](=O)(O)O[P@](=O)(O)OP(=O)(O)O)O2)c(=O)[nH]c1=O [ZIDOVUDINE TRIPHOSPHATE] 51 nM

What does the data say about its IC50? Entry: CCCc1cc(=O)oc2c3c(c4c(c12)OC(C)(C)C=C4)O[C@@H](C)[C@H](C)[C@@H]3O [COSTATOLIDE] 290 nM

What does the data say about its IC50? Entry: CCCc1cc(=O)oc2c3c(c4c(c12)OC(C)(C)C=C4)O[C@H](C)[C@@H](C)[C@@H]3O [CALANOLIDE A] 320 nM

What does the data say about its IC50? Entry: C[C@H]1[C@H](C)Oc2c3c(c4c(-c5ccccc5)cc(=O)oc4c2[C@H]1O)OC(C)(C)C=C3 [SOULATTROLIDE] 340 nM
